- experimentalTarget: Glucocorticoid receptor (Homo sapiens, UniProt P04150)
- Sequence (P04150 whole entry): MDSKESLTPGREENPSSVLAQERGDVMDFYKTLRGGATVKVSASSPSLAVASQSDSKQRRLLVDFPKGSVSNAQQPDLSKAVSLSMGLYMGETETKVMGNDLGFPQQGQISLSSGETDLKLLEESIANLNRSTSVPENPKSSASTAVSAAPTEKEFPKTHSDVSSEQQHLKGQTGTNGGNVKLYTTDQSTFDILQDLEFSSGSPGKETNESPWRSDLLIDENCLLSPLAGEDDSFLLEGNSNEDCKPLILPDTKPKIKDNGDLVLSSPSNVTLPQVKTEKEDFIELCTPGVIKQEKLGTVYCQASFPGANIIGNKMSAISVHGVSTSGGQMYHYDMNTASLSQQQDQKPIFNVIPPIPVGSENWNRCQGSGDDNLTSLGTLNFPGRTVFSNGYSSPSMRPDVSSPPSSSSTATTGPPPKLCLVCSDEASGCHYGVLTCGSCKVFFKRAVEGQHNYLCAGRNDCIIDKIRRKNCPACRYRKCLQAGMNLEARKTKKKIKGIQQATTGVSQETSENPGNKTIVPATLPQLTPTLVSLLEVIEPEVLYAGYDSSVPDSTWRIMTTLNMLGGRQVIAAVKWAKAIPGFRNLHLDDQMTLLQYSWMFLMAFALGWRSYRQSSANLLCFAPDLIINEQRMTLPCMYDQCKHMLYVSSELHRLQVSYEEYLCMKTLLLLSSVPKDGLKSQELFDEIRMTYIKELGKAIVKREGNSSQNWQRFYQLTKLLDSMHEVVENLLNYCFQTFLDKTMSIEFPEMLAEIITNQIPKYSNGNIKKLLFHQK
- assayInfo: Antagonist activity at glucocorticoid receptor in human HepG2 cells assessed as inhibition of dexamethasone-induced tyrosine amino transferase activity preincubated for 30 mins followed by dexamethasone addition measured after 20 hrs
- Type: cell-based
metric: pKi
pKi (log units): -log10 of the concentration in mol/L.

As a guide, the following entries are already answered.
smilesCode	experimentalTarget	pKi
Cc1ccnc(C(=O)[C@]23Cc4cnn(-c5ccc(F)cc5)c4C=C2CCN(S(=O)(=O)c2cccc(C(F)(F)F)c2)C3)c1	Glucocorticoid receptor (Homo sapiens, UniProt P04150)	8.29
Cn1nccc1S(=O)(=O)N1CCC2=Cc3c(cnn3-c3ccc(F)cc3)C[C@]2(C(=O)c2cc(C(F)(F)F)ccn2)C1	Glucocorticoid receptor (Homo sapiens, UniProt P04150)	7.96
Cn1cc(S(=O)(=O)N2CCC3=Cc4c(cnn4-c4ccc(F)cc4)C[C@]3(C(=O)c3ccccn3)C2)cn1	Glucocorticoid receptor (Homo sapiens, UniProt P04150)	7.55
Cc1ccnc(C(=O)[C@]23Cc4cnn(-c5ccc(F)cc5)c4C=C2CCN(S(=O)(=O)c2cccc(C#N)c2)C3)c1	Glucocorticoid receptor (Homo sapiens, UniProt P04150)	8.35
O=C(c1ccccn1)[C@]12Cc3cnn(-c4ccc(F)cc4)c3C=C1CCN(S(=O)(=O)c1ccc(C(F)(F)F)cc1)C2	Glucocorticoid receptor (Homo sapiens, UniProt P04150)	7.92

Ask: Give the measured pKi of Cc1ccnc(C(=O)[C@]23Cc4cnn(-c5ccc(F)cc5)c4C=C2CCN(S(=O)(=O)c2ccc(F)c(F)c2)C3)c1 .
Result: 8.24

Ask: Quick one: pKi for Cc1cccc(S(=O)(=O)N2CCC3=Cc4c(cnn4-c4ccc(F)cc4)C[C@]3(C(=O)c3cc(C)ccn3)C2)c1 ?
Result: 8.48

Ask: // lookup pKi for Cn1nncc1S(=O)(=O)N1CCC2=Cc3c(cnn3-c3ccc(F)cc3)C[C@]2(C(=O)c2cc(C(F)(F)F)ccn2)C1
Result: 7.51

Ask: pKi lookup needed for Cn1ncc(S(=O)(=O)N2CC[C@H]3Cc4c(cnn4-c4ccc(F)cc4)C[C@]3(C(=O)c3cc(C(F)(F)F)ccn3)C2)n1 , thanks.
Result: 7.92

Ask: Entry Cc1csc(C(=O)[C@]23Cc4cnn(-c5ccc(F)cc5)c4C=C2CCN(S(=O)(=O)c2cccc(C(F)(F)F)c2)C3)n1 has what pKi?
Result: 7.20

Ask: Fill in the blank: the reported pKi of O=C(c1ccccn1)[C@]12Cc3cnn(-c4ccc(F)cc4)c3C[C@@H]1CCN(S(=O)(=O)c1cccc(C(F)(F)F)c1)C2 is ____.
Result: 7.36

Ask: Recorded pKi for Cc1cccc(S(=O)(=O)N2CCC3=Cc4c(cnn4-c4ccc(F)cc4)C[C@]3(C(=O)c3cccc(C)n3)C2)c1 , please?
Result: 7.85

Ask: GET /values?readout=pKi&item= Cn1ccc(S(=O)(=O)N2CC[C@H]3Cc4c(cnn4-c4ccc(F)cc4)C[C@]3(C(=O)c3cc(C(F)(F)F)ccn3)C2)n1
Result: 7.62

Ask: State the recorded pKi for this entry: O=C(c1nccs1)[C@]12Cc3cnn(-c4ccc(F)cc4)c3C=C1CCN(S(=O)(=O)c1cccc(C(F)(F)F)c1)C2
Result: 7.77

Ask: Suppose we examine the molecule Cn1cc(S(=O)(=O)N2CCC3=Cc4c(cnn4-c4ccc(F)cc4)C[C@]3(C(=O)c3cc(C(F)(F)F)ccn3)C2)nn1 ; what pKi value has been reported?
Result: 8.01

Ask: Dear colleague, I am looking for the recorded pKi of the following molecule: Cn1nncc1S(=O)(=O)N1CC[C@H]2Cc3c(cnn3-c3ccc(F)cc3)C[C@]2(C(=O)c2cc(C(F)(F)F)ccn2)C1
Result: 6.92
